The reported measurements were obtained from paper PMC10811212.

- test-name: physchem
- Type: physicochemical
- condition-parameters: 25 °C, pH 6.8, aqueous buffer, thermodynamic from solid
reported-property: solubility thermodynamic at 24 h

Prompt: Quick one: give measured solubility thermodynamic at 24 h for COc1cc(CCc2cc(-c3nc4ccc(N5CCN(C)CC5)cc4[nH]3)n[nH]2)cc(OC)c1
Response: 20 µg/mL

====

- test-name: physchem
- Type: physicochemical
- condition-parameters: 25 °C, pH 4.2, aqueous buffer, thermodynamic from solid
reported-property: solubility thermodynamic at 24 h (µg/mL)
One number for each entry, in µg/mL.

Prompt: Could you please provide reported solubility thermodynamic at 24 h for COc1cc(CCc2cc(-c3nc4ccc(N5CCN(C)CC5)cc4[nH]3)n[nH]2)cc(OC)c1 ? Thanks!
Response: 3100
